- Tested Target: ALK5 kinase (Homo sapiens, UniProt P36897)
- Construct: GST; purchased Thermo Fisher Scientific Solutions
- Method Description: Activity inhibition test on ALK5 enzyme (LanthaScreen Eu binding kinase assay)
- Cond: kinase tracer 178, 60 minutes at room temperature
- Procedure: For each of the compounds obtained in Examples 1 to 227, inhibitory activity against ALK5 kinase was measured. For this, a LanthaScreen Eu binding kinase assay method was used, and ALK5 kinase, a kinase buffer, a kinase tracer 178, and a LanthaScreen Eu-GST binding antibody were all purchased from Thermo Fisher Scientific Solutions. […] Then a fluorescence value was measured using a fluorescence meter (molecular device) ([…], 665 nm emission filter). […]
Reported Property: IC50 (nM)

Take a look at these entries with their results.
> print(dat)
                                   compound                             tested.target  reported.property  assay.result
1  Cc1cccc(-n2nc(C(=O)NCc3ccccc3F)cc2-c2ccc3ncnn3c2)n1 [Example 155]  ALK5 kinase (Homo sapiens, UniProt P36897)               IC50            13
2  CNS(=O)(=O)c1ccc(NC(=O)c2cc(-c3ccc4ncsc4c3)n(-c3cccc(C)n3)n2)cc1 [Example 48]  ALK5 kinase (Homo sapiens, UniProt P36897)               IC50           4.1
3  Cc1cccc(-n2nc(C(=O)Nc3ccc(SC4CC4)cc3)cc2-c2ccc3ncsc3c2)n1 [Example 37]  ALK5 kinase (Homo sapiens, UniProt P36897)               IC50            40
4  Cc1cccc(-n2nc(C(=O)Nc3ccc(O)cc3)cc2-c2ccc3ncnn3c2)n1 [Example 93]  ALK5 kinase (Homo sapiens, UniProt P36897)               IC50           3.9

[A] Cc1cccc(-n2nc(C(=O)Nc3ccc(OCc4ccccc4)cc3)cc2-c2ccc3ncsc3c2)n1 [Example 6]
[B] Cc1cccc(-n2nc(C(=O)Nc3ccc(S(C)(=O)=O)cc3)cc2-c2ccc3ncsc3c2)n1 [Example 41]
Qu. Between the entries labeled A and B , whose measured IC50 is lower? To answer, give the label that identifies your chosen option.
Ans. B

###

Overview of recorded IC50 for various compounds
- Tested Target: ALK5 kinase (Homo sapiens, UniProt P36897)
- Construct: GST; purchased Thermo Fisher Scientific Solutions
- Method Description: Activity inhibition test on ALK5 enzyme (LanthaScreen Eu binding kinase assay)
- Cond: kinase tracer 178, 60 minutes at room temperature

> print(dat)
                                 smiles.str  assay.result
1  Cc1cccc(-n2nc(C(=O)Nc3ccc(F)cc3)cc2-c2ccc3ncsc3c2)n1        3.9 nM
2  Cc1cccc(-n2nc(C(=O)Nc3ccc(Cl)cc3)cc2-c2ccc3ncnn3c2)n1  10 to 100 nM
3  Cc1cccc(-n2nc(C(=O)Nc3cccc(Cl)c3)cc2-c2ccc3ncnn3c2)n1  10 to 100 nM
4  Cc1cccc(-n2nc(C(=O)Nc3ccc(N4CCOCC4)cc3)cc2-c2ccc3nccnc3c2)n1  10 to 100 nM
5  Cc1cccc(-n2nc(C(=O)Nc3ccc(S(N)(=O)=O)cc3)cc2-c2ccc3ncsc3c2)n1        1.3 nM

Qu. IC50 of "Cc1cccc(-n2nc(C(=O)Nc3cc(F)ccc3F)cc2-c2ccc3ncnn3c2)n1" on ALK5 kinase (Homo sapiens, UniProt P36897)?
Ans. 10 to 100 nM

###

- Tested Target: ALK5 kinase (Homo sapiens)
- Construct: GST; purchased Thermo Fisher Scientific Solutions
- Sequence (P36897 34-503): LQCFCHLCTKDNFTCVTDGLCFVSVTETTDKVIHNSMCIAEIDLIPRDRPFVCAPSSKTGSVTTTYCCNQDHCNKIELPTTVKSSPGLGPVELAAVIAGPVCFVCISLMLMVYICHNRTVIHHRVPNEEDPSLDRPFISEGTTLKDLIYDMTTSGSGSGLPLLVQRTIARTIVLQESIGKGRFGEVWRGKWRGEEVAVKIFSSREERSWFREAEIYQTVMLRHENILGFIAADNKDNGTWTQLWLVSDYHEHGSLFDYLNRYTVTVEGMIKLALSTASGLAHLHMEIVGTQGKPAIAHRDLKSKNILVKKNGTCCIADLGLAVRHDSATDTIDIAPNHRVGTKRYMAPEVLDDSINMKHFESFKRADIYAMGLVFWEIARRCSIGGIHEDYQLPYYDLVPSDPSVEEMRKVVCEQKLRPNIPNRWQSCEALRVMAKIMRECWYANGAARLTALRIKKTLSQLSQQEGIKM
- Method Description: Activity inhibition test on ALK5 enzyme (LanthaScreen Eu binding kinase assay)
- Cond: kinase tracer 178, 60 minutes at room temperature
- Procedure: For each of the compounds obtained in Examples 1 to 227, inhibitory activity against ALK5 kinase was measured. For this, a LanthaScreen Eu binding kinase assay method was used, and ALK5 kinase, a kinase buffer, a kinase tracer 178, and a LanthaScreen Eu-GST binding antibody were all purchased from Thermo Fisher Scientific Solutions. […] Then a fluorescence value was measured using a fluorescence meter (molecular device) ([…], 665 nm emission filter). […]
Reported Property: IC50

> print(dat)
                                 smiles.str  assay.result
1  Cc1cccc(-n2nc(C(=O)Nc3ccc(F)nc3)cc2-c2ccc3ncnn3c2)n1        4.6 nM
2  COc1ccc(CNC(=O)c2cc(-c3ccc4nccnc4c3)n(-c3cccc(C)n3)n2)cc1       ~100 nM
3  Cc1cccc(-n2nc(C(=O)Nc3cccc(S(=O)(=O)NC4CC4)c3)cc2-c2ccc3ncsc3c2)n1        5.6 nM
4  Cc1cccc(-n2nc(C(=O)Nc3cccc(C(F)(F)F)c3)cc2-c2ccc3nccnc3c2)n1       ~100 nM

// below: IC50 requested for another molecule
Qu. Need IC50 of "Cc1cccc(-n2nc(C(=O)Nc3ccccc3Cl)cc2-c2ccc3ncnn3c2)n1" , thanks.
Ans. ~100 nM

###

- Tested Target: ALK5 kinase (Homo sapiens)
- Construct: GST; purchased Thermo Fisher Scientific Solutions
- Method Description: Activity inhibition test on ALK5 enzyme (LanthaScreen Eu binding kinase assay)
- Cond: kinase tracer 178, 60 minutes at room temperature
Reported Property: IC50 (nM)

Take a look at these entries with their results.
> print(dat)
                                   compound  measurement.unit  assay.result
1  Cc1cccc(-n2nc(C(=O)Nc3ccc(S(=O)(=O)NCC(F)(F)F)cc3)cc2-c2ccc3ncsc3c2)n1                nM           5.6
2  Cc1cccc(-n2nc(C(=O)Nc3ccc(N(C)CCN(C)C)cc3)cc2-c2ccc3ncnn3c2)n1                nM            14
3  Cc1cccc(-n2nc(C(=O)Nc3ccc(S(C)(=O)=O)cc3)cc2-c2ccc(F)c(-c3cnn(CCO)c3)c2)n1                nM           4.7

[a] CNc1cccc(NC(=O)c2cc(-c3ccc4ncsc4c3)n(-c3cccc(C)n3)n2)c1
[b] Cc1cccc(-n2nc(C(=O)Nc3cccc([S+](C)[O-])c3)cc2-c2ccc3ncnn3c2)n1 (centres unmarked)
[c] COc1ccc(NC(=O)c2cc(-c3ccnc4ccccc34)n(-c3cccc(C)n3)n2)cc1F
Qu. Order the items by recorded IC50; the first position goes to the largest value. Please reply with the labels ordered as requested. Many thanks.
Ans. c, b, a
(c: 91 nM, b: 15 nM, a: 6.1 nM)

###

- Tested Target: ALK5 kinase (Homo sapiens, UniProt P36897)
- Construct: GST; purchased Thermo Fisher Scientific Solutions
- Method Description: Activity inhibition test on ALK5 enzyme (LanthaScreen Eu binding kinase assay)
- Cond: kinase tracer 178, 60 minutes at room temperature
Reported Property: IC50 (nM)

> print(dat)
                                   compound  measurement.unit  assay.result
1  CCCCNc1ccc(NC(=O)c2cc(-c3ccc4ncsc4c3)n(-c3cccc(C)n3)n2)cc1                nM           9.1
2  Cc1cccc(-n2nc(C(=O)Nc3ccc(S(C)(=O)=O)nc3)cc2-c2ccc3ncsc3c2)n1                nM           4.9

[1] COc1ccc(NC(=O)c2cc(-c3ccc4nccnc4c3)n(-c3cccc(C)n3)n2)cc1
[2] Cc1cccc(-n2nc(C(=O)Nc3ccc([S+](C)[O-])cc3)cc2-c2ccc3ncnn3c2)n1 (centres unmarked)
Qu. Between the entries labeled 1 and 2 , whose measured IC50 is lower? To answer, give the label that identifies your chosen option.
Ans. 2

###

- Tested Target: ALK5 kinase (Homo sapiens)
- Construct: GST; purchased Thermo Fisher Scientific Solutions
- Method Description: Activity inhibition test on ALK5 enzyme (LanthaScreen Eu binding kinase assay)
- Cond: kinase tracer 178, 60 minutes at room temperature
Overview of recorded IC50 for various compounds

> print(dat)
                                 smiles.str               tested.target  assay.result
1  Cc1cccc(-n2nc(C(=O)Nc3ccc(CN4CCOCC4)cc3)cc2-c2ccc3nccnc3c2)n1  ALK5 kinase (Homo sapiens)       ~100 nM
2  Cc1cccc(-n2nc(C(=O)Nc3cccc(C#N)c3)cc2-c2ccc3ncsc3c2)n1  ALK5 kinase (Homo sapiens)  10 to 100 nM
3  Cc1cccc(-n2nc(C(=O)Nc3ccc(OCC4CC4)cc3)cc2-c2ccc3ncsc3c2)n1  ALK5 kinase (Homo sapiens)         12 nM
4  COCCOc1ccc(NC(=O)c2cc(-c3ccnc4ccccc34)n(-c3cccc(C)n3)n2)cc1  ALK5 kinase (Homo sapiens)         18 nM
5  CN(C)c1ccc(NC(=O)c2cc(-c3ccc4nccnc4c3)n(-c3cccc(Br)n3)n2)cc1  ALK5 kinase (Homo sapiens)  10 to 100 nM

// below: IC50 requested for another compound
Qu. Need IC50 of "Cc1cccc(-n2nc(C(=O)NCc3ccc(C#N)cc3)cc2-c2ccc3nccnc3c2)n1" , thanks.
Ans. > 100 nM
